Biological target: 11β-HSD1 (Homo sapiens, UniProt P28845)
Sequence (P28845 whole entry): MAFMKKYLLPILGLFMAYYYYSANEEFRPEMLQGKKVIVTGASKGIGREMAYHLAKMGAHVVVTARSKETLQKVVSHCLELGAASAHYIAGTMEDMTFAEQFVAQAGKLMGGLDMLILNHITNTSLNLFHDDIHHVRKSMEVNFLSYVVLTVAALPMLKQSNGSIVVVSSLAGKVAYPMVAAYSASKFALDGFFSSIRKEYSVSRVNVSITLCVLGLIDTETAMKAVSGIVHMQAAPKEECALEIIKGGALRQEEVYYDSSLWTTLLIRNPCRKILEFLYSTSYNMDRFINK
Experiment: In vitro inhibition of 11β-HSD1, HTRF detection of cortisol generated by human liver microsomes (biological test example 1)
Type: biochemical
Parameters: detecting cortisol generated from cortisterone by human liver microsomes; from tissue; host or cells: human liver microsomes
Settings: 1 hour at 37° C., cortisone 80 nM, NADPH 200 μM, read-out: IC50, inhibitory activity on 11β-HSD 1
recorded-endpoint: IC50 (µM)
API: value field is a number in µM; no unit string.

{"molecule": "C[C@@H](c1ccc(-c2ccc(C3(C(N)=O)CCCC3)nc2)cc1)N1CC[C@](CC(C)(C)O)(c2ccccc2)OC1=O [Example 42]", "IC50 (µM)": 0.056}
{"molecule": "C[C@@H](c1ccc(-c2ccc(C3(C(=O)O)CC3)nn2)cc1)N1CC[C@](CC(C)(C)O)(c2ccccc2)OC1=O [Example 8]", "IC50 (µM)": 0.182}
{"molecule": "C[C@@H](c1ccc(-c2ccnc(C3(C(N)=O)CC3)c2)cc1)N1CC[C@](CC(C)(C)O)(c2ccccc2)OC1=O [Example 46]", "IC50 (µM)": 0.056}

Request: Please give the measured IC50 for this molecule: C[C@@H](c1ccc(-c2ccn([C@@H]3CCOC3)c(=O)c2)cc1)N1CC[C@](CC(C)(C)O)(c2ccccc2)OC1=O [Example 12]
Response: 0.092

Request: What does the record list as IC50 for C[C@@H](c1ccc(-c2ccc(C3(S(C)(=O)=O)CC3)cn2)cc1)N1CC[C@](CC(C)(C)O)(c2ccccc2)OC1=O [Example 25] ?
Response: 0.084

Request: IC50 for C[C@@H](c1ccc(-c2ccc(C3(C#N)CC3)nc2)cc1)N1CC[C@](CC(C)(C)O)(c2ccccc2)OC1=O [Example 2] ?
Response: 0.068

Request: Endpoint output: IC50 of C[C@@H](c1ccc(-c2ccnc(C3(S(C)(=O)=O)CC3)c2)cc1)N1CC[C@](CC(C)(C)O)(c2ccccc2)OC1=O [Example 21] . Value?
Response: 0.052

Request: Which IC50 value belongs to C[C@@H](c1ccc(-c2ccc(C3(C#N)CC3)cn2)cc1)N1CC[C@](CC(C)(C)O)(c2ccccc2)OC1=O [Example 17] ?
Response: 0.081

Request: Can you look up the measured IC50 of C[C@@H](c1ccc(-c2cnn(C3CCOCC3)c2)cc1)N1CC[C@](CC(C)(C)O)(c2ccccc2)OC1=O [Example 14] for me?
Response: 0.048

---

Molecular target: 11β-HSD1 (Homo sapiens)
Test: In vitro inhibition of 11β-HSD1, HTRF detection of cortisol generated by human liver microsomes (biological test example 1)
Format: biochemical
Design: detecting cortisol generated from cortisterone by human liver microsomes; from tissue; host or cells: human liver microsomes
Conditions: 1 hour at 37° C., cortisone 80 nM, NADPH 200 μM, read-out: IC50, inhibitory activity on 11β-HSD 1
Protocol: Briefly, compounds were incubated for 1 hour at 37° C. in Tris buffer (20 mM tris, 5 mM EDTA, pH 6.0) containing NADPH (200 μM) and cortisone (80 nM). Cortisol generated in the reaction was then detected with a competitive immunoassay, involving two HTRF conjugates: cortisol linked to XL665 and anti-cortisol antibody labeled with Europium cryptate. […] The amount of cortisol was determined by reading the time-resolved fluorescence of the wells (Ex 320/75 nm; Em 615/8.5 nm and 665/7.5 nm). […]
recorded-endpoint: IC50 (nM)
Kindly provide the numeric value in nM only, without the unit symbol.

Use these answered entries as a reference point.
{"molecule": "CNC(=O)C1(c2cccc(-c3ccc([C@H](C)N4CC[C@](CC(C)(C)O)(c5ccccc5)OC4=O)cc3)n2)CC1", "unit-of-measure": "nM", "measurement": 115}
{"molecule": "C[C@@H](c1ccc(-c2ccc(N3CCC[C@@H]3C(N)=O)nc2)cc1)N1CC[C@](CC(C)(C)O)(c2ccccc2)OC1=O", "unit-of-measure": "nM", "measurement": 43}
{"molecule": "C[C@@H](c1ccc(-c2ccc(C3(C(N)=O)CCOCC3)nc2)cc1)N1CC[C@](CC(C)(C)O)(c2ccccc2)OC1=O", "unit-of-measure": "nM", "measurement": 73}
{"molecule": "C[C@@H](c1ccc(-c2ccc(C3CCN(C)C3=O)nc2)cc1)N1CC[C@](CC(C)(C)O)(c2ccccc2)OC1=O (some centres unmarked)", "unit-of-measure": "nM", "measurement": 42}
{"molecule": "C[C@@H](c1ccc(-c2ccc(C3(C)CCN(C)C3=O)nc2)cc1)N1CC[C@](CC(C)(C)O)(c2ccccc2)OC1=O (some centres unmarked)", "unit-of-measure": "nM", "measurement": 29}
{"molecule": "C[C@@H](c1ccc(-c2ccc(C3(C(N)=O)CCC3)nc2)cc1)N1CC[C@](CC(C)(C)O)(c2ccccc2)OC1=O", "unit-of-measure": "nM", "measurement": 80}
{"molecule": "C[C@@H](c1ccc(-c2cnn([C@@H]3CCOC3)c2)cc1)N1CC[C@](CC(C)(C)O)(c2ccccc2)OC1=O", "unit-of-measure": "nM", "measurement": 27}

Now consider a different molecule.
Request: Any idea what IC50 was measured for `C[C@@H](c1ccc(-c2cccc(C3(C(=O)N(C)C)CC3)n2)cc1)N1CC[C@](CC(C)(C)O)(c2ccccc2)OC1=O` ?
Response: 53
